Target: SARS-CoV RTC (nsp12 in complex with nsp7L8) (Severe acute respiratory syndrome coronavirus)
Assay: biochemical
pIC50: −log10 of the molar value.
measurement-name: pIC50

compound="O=c1ccn([C@@H]2O[C@H](COP(=O)(O)OP(=O)(O)OP(=O)(O)O)C[C@H]2O)c(=O)[nH]1 [3’dUTP]" assay_value=5.17
